tested on: HOP-62 NSCLC; assay: NCI tumour cell line growth inhibition, 48 h; in the data active = GI50 below about 0.43 µM; inactive = the rest
Form entry, call: pick from true (active), false (inactive)

1) O=C1NC(=O)C(c2cccc(Cl)c2)=C1Nc1ccc(O)c(Cl)c1
false
2) CC1=CC(=O)C(O)C2(C)C1CC(O)C13COC4(C)C(OC(=O)C41)C(O)C23 (configuration not stated)
false

Input: Per the records of this test, what outcome belongs to `Cc1c(C2=C(c3cn(C)c4ccccc34)C(=O)NC2=O)c2ccccc2n1C` ?
Output: false

Input: Per the records of this test, what outcome belongs to C=C1CCC2[C@@H](CCC3[C@]2(C)CCC[C@]3(C)C(=O)OC)[C@@H]1CC=O (some centres not stated) ?
Output: false

Input: Per the records of this test, what outcome belongs to COc1ccc2c(c1)OC1=C(C(=O)OC1)C2c1cc(OC)c2c(c1)OCO2 (configuration not stated) ?
Output: true

Input: Per the records of this test, what outcome belongs to `O=C(Nc1cccc(Nc2ncc(Br)c(NCCc3cnc[nH]3)n2)c1)N1CCCC1` ?
Output: false

Input: Per the records of this test, what outcome belongs to `CC(C)(C)c1ccc(C(=O)Nc2sc3c(c2C(N)=O)CCC(=O)C3)cc1` ?
Output: false
